Test system: SK-MEL-28
Protocol summary: NCI tumour cell line growth inhibition, 48 h
Active and inactive are the calls of the source. Rule as the data show it: active = GI50 up to about 1.1 µM and inactive = higher.
Metric name: GI50

CC(CSc1nc2c(c(=N)n1-c1ccccc1)c(=S)n(-c1ccccc1)c(=S)n2-c1ccccc1)CN(C)C (centres undefined); 2.12 µM (inactive)
CCOC(=O)c1c(-c2ccc(OC)cc2)c(C#N)c(=S)n(C2OC(COC(C)=O)C(OC(C)=O)C(OC(C)=O)C2OC(C)=O)c1-c1ccccc1 (centres undefined); > 100 µM (inactive)
O=C1/C(=C/c2cccc(F)c2)CCCc2ccccc21; 16.6 µM (inactive)

response.value for CCOC(=O)CCC(NC(=O)c1ccc(OCc2ccc3nc(OC)c(OC)nc3c2)cc1)C(=O)OCC (centres undefined) (field: GI50) = 44.6 µM (inactive)

* * *

System: SW-620
Protocol summary: NCI tumour cell line growth inhibition, 48 h
The source made the active and inactive calls. Cut-off read from the data, not from the text of the source: active = GI50 up to about 1.1 µM and inactive = higher.
Known GI50 of a selection of compounds

Please review the following examples before continuing.
COc1ccc(-c2cc(=O)c3c(O)c(OC)c(O)cc3o2)cc1O; 3.13 µM (inactive)
CCN(CC)CC1CCCCN1CC(=O)N1c2ccccc2NC(=O)c2ccccc21 (stereo unspecified); > 100 µM (inactive)
COC(=O)C1(C(=O)OC)CC2=C(S(=O)(=O)c3ccccc3)C[C@H](S(=O)(=O)c3ccccc3)[C@H]2C1; > 100 µM (inactive)
O=C1Nc2ccc(Cl)cc2/C1=C\c1c(Cl)nc2sccn12; 14.8 µM (inactive)

response.value for NC(=O)CC1OC(=O)Cc2cc3c(c(O)c21)C(=O)c1c(O)cccc1C3=O (stereo unspecified) (field: GI50) = > 100 µM (inactive)

Short answer for CC(=N\c1ccncc1)/C(C)=N/c1ccncc1 : GI50 was 30.8 µM (inactive)

Record summary for Cc1ccc([C@H]2CC(=O)C[C@H](c3ccc(C)cc3)C23C(=O)c2ccccc2C3=O)cc1 : reported GI50 = 94.6 µM (inactive)

For this compound ( CCCCCCCC(=O)OCC1OC(OC)C(NC(=O)N(CCCl)N=O)C(O)C1O (stereo unspecified) ), measured GI50 is 4.17 µM (inactive)

Lab note: COC(=O)c1ccc(C=C(C#N)C#N)cc1 gave GI50 of 21.3 µM (inactive)

The compound listed as Cc1cc([N+](=O)[O-])c(C)c2c1[nH]c1ccc(O)cc12 shows GI50 equal to 63.1 µM (inactive)

Given item NNC(=O)CC(=O)Nc1ccccc1Cl , the value recorded as its GI50 is > 100 µM (inactive)

* * *

Known GI50 of a selection of compounds
Tested on: UO-31
Protocol summary: NCI tumour cell line growth inhibition, 48 h
Activity calls are given as the source filed them. Rule as the data show it: active = GI50 up to about 1.1 µM and inactive = higher.

Solved cases (3 shown):
O=C(O)c1c(Br)c(Br)c(Br)c(Br)c1C1c2ccc(O)cc2Oc2cc(O)ccc21; 33 µM (inactive)
COC(=O)C(CCCCN)NC(=O)C(CCCCN)NC(=O)C(CCCCN)NC(C)=O.Cc1ccc(C(=O)Nc2ccc(S(=O)(=O)O)c3cc(S(=O)(=O)O)cc(S(=O)(=O)O)c23)cc1NC(=O)c1cccc(NC(=O)Nc2cccc(C(=O)Nc3cc(C(=O)Nc4ccc(S(=O)(=O)O)c5cc(S(=O)(=O)O)cc(S(=O)(=O)O)c45)ccc3C)c2)c1; > 50 µM (inactive)
COC(=O)/C(=N/NC(N)=O)C(C(=O)C(=O)Nc1ccc(C)cc1)c1nc2ccc(C(=O)c3ccccc3)cc2nc1O (configuration not stated); 30.5 µM (inactive)

Looking up CC(=O)N(C(C)=O)n1c(Cc2ccc(Cl)cc2)nn(C(C)=O)c1=O , I found its GI50 recorded as > 100 µM (inactive)

Record CCN1C2=NC(=O)N(C)C(=O)C2(Cl)C(C(SC)S(=O)(=O)c2ccc(C)cc2)c2ccccc21 (configuration not stated) , field GI50: 19.9 µM (inactive)

Documented GI50 of C[N+](C)(CCNc1ccc(NCC[N+](C)(C)Cc2ccc([N+](=O)[O-])cc2)c2c1C(=O)c1ccccc1C2=O)Cc1ccc([N+](=O)[O-])cc1 : > 100 µM (inactive)

Form: compound = CC[C@H]1CC(=O)c2c(cc3c(c2O)C(=O)c2ccccc2C3=O)[C@@]1(C#N)C(=O)OC(C)(C)C ; GI50 = 2.69 µM (inactive)

* * *

Tested on: KM12
Protocol summary: NCI tumour cell line growth inhibition, 48 h
Calls of active or inactive are those of the source. Cut-off read from the data, not from the text of the source: active = GI50 up to about 1.1 µM and inactive = higher.
Select the correct class. Options are 1 (active), -1 (inactive) and nothing else.

Solved entries:
CC1CC(N)=Nc2ccccc2N1Cc1ccccc1 (stereo not drawn); -1
C(CCCCc1nnc(N2CCCCC2)o1)CCCc1nnc(N2CCCCC2)o1; -1
C1=N\CCNCCNCC/N=C\c2ccc(cc2)OCc2cccc(n2)COc2ccc/1cc2; -1
CC(C)C(OC(=O)c1ccc(NCC2=CC(=O)C=CC2=O)cc1)C(C)C; -1
C[C@H]1S[C@@H](c2ccc(Cl)cc2Cl)N(NC(=O)c2ccncc2)C1=O; -1

# input for lookup
In: So what was the verdict on Cc1c(N/C=C(\C#N)C(=O)c2ccc(Cl)cc2)c(=O)n(-c2ccccc2)n1C in this test?
Out: -1

* * *

Tested on: SW-620
Protocol summary: NCI tumour cell line growth inhibition, 48 h
Calls of active or inactive are those of the source. Cut-off read from the data, not from the text of the source: active = GI50 up to about 1.1 µM and inactive = higher.
The reply should name one outcome from 1 (yes) for active, 0 (no) for inactive

Worked set:
C[N+](C)(C)CC(=O)N/N=C(/C(=O)Nc1ccc(Br)cc1)C1C(=O)NC(=O)NC1=O; 0 (no)
COc1cc(C)cc2c1C(=O)C(Br)=CC2=O; 0 (no)
O=[N+]([O-])c1ccc(CSCc2ccc(Cl)cc2)cc1; 0 (no)
O=C(Cc1ccc(F)cc1)NC1=C(Cl)C(=O)c2ccccc2C1=O; 0 (no)
CN(C)Cc1cc(C(F)(F)F)ccc1C(O)(c1ccccc1)c1ccccc1; 0 (no)

Consider the record given below.
In: So what was the verdict on CCn1c(C)nc([N+](=O)[O-])c1Sc1ncc[nH]1 in this test?
Out: 0 (no)

* * *

Tested on: KM-20L2
Protocol summary: NCI tumour cell line growth inhibition, 48 h
Calls of active or inactive are those of the source. Cut-off read from the data, not from the text of the source: active = GI50 up to about 1.1 µM and inactive = higher.
Reported GI50 by item:

// below: answered compounds
C=C(CN(C)C)C(=O)c1ccccc1C; > 67.1 µM (inactive)
O=c1nc(NC2CCCCO2)ccn1CCO (stereo unspecified); > 100 µM (inactive)
Cc1cc2c(cc1C)[n+]([O-])c(C(=O)CC(=O)C(=O)Nc1ccccc1C(C)C)c(C)[n+]2[O-]; > 100 µM (inactive)
COc1c(Cl)c(Cl)c(OC)c2c1C(=O)C=CC2=O; 68.2 µM (inactive)

CCOC(=O)NC/C=C/COC1CCCCO1 (stereo unspecified) yielded GI50 of > 100 µM (inactive)

// sample O=C(OCCOC(=O)c1ccc2c(c1)C1(SCCS1)c1ccccc1-2)c1ccc2c(c1)C1(SCCS1)c1ccccc1-2 , its GI50 was > 100 µM (inactive)

* * *

System: SK-MEL-28
Protocol summary: NCI tumour cell line growth inhibition, 48 h
Calls of active or inactive are those of the source. Cut-off read from the data, not from the text of the source: active = GI50 up to about 1.1 µM and inactive = higher.
Form entry, call: pick from YES for active, NO for inactive

O=C1[C@@H]2C(c3ccccc3Br)=NO[C@@H]2C(=O)N1c1ccc(Cc2ccc(N3C(=O)[C@H]4C(c5ccccc5Br)=NO[C@H]4C3=O)cc2)cc1; NO
CCOC(=O)/C=C/CC(C)(C)CCOC(C)=O; NO
O=C1c2cc([N+](=O)[O-])sc2C(=O)c2c([N+](=O)[O-])csc21; YES

In: Assay outcome for CCOC(=O)C(=CNC(=S)Nc1c(CC)cccc1CC)C(=O)OCC : what was it?
Out: NO

In: Which outcome was entered for the compound O=c1c2ncn(COCCCl)c2n(-c2ccccc2)c(=S)n1-c1ccccc1 in this test?
Out: NO

In: Which outcome did this test record for the compound O=C1CCC(NC(=O)Cc2ccc(O)cc2)C(=O)N1 (stereo not given) ?
Out: NO

In: So what was the verdict on CN(Cc1cnc2nc(N)nc(N)c2n1)c1ccc(C(=O)NCCS(=O)(=O)O)cc1 in this test?
Out: NO

In: For O=C(OCCOC(=O)c1ccc2c(c1)C1(SCCS1)c1ccccc1-2)c1ccc2c(c1)C1(SCCS1)c1ccccc1-2 , which call appears in the assay record?
Out: NO

In: Outcome? CC1=NN(c2ccccc2)C(=O)C1/N=N/c1ccc(Br)cc1C (stereo not given)
Out: NO

In: Which result was noted for this compound in the test: O=C(O)c1c(Br)c(Br)c(Br)c(Br)c1C1c2ccc(O)cc2Oc2cc(O)ccc21
Out: NO

In: Field: outcome | Entry: Cc1ccc([S+](c2ccccc2)c2cc(C)ccc2C)cc1.O=C(OC(C(=O)[O-])C(OC(=O)c1ccccc1)C(=O)O)c1ccccc1 (stereo not given)
Out: NO

In: For Cc1ccc(/N=N/C(C(=O)c2ccccc2)C(=O)c2ccccc2)cc1 , what call appears in the results of this test?
Out: NO

In: Recorded call for CC[C@@H](/C=C\CCC(=O)C[C@H](O)CCC=C(C)C)O[Si](C(C)C)(C(C)C)C(C)C ?
Out: NO

In: Outcome? CN(c1ccccc1Cl)S(=O)(=O)c1ccccc1
Out: NO

In: Please share the test call associated with C=CCC12CCC(=O)[C@@]1(C)CC=C(O)C2=O (stereo not given in full) .
Out: NO

In: For this compound, state the assay outcome: C=C/C=C(\NC(=O)C(Cl)(Cl)Cl)[Si](C)(C)C
Out: NO

In: Recorded call for COc1ccc2c(c1)N=C1CSC(c3c(Cl)cccc3[N+](=O)[O-])N1C2 (stereo not given) ?
Out: NO

In: Please share the test call associated with CC(C)(C)OC(=O)c1ccc(NCc2cc(O)ccc2O)cc1 .
Out: NO

In: Identify the outcome logged in this assay for the compound shown: CCOC(=O)C(C(O)c1ccc([N+](=O)[O-])cc1)P(=O)(OCC)OCC (stereo not given)
Out: NO

In: Test call, this compound: CCCCCCCCC/C=C1\CCC(CN2CCOCC2)C1=O (stereo not given)
Out: NO
